- measuredTarget: CTLA-4 (Homo sapiens (Human)) (UniProt P16410)
- Sequence (P16410 36-223): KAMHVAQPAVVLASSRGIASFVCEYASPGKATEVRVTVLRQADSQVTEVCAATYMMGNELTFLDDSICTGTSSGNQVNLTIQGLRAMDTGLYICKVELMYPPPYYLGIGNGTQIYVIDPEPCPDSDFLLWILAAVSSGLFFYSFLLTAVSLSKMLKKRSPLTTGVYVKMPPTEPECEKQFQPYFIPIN
- testDetails: flow cytometry, transfected cells
Simple rule here: MFI less than 300000 MFI is Fulfilled, otherwise Not fulfilled.

Record ICOSL-Fc N52R/N57L/Q100S (Fc fusion) DTQEKEVRAMVGSDVELSCACPEGSRFDLNDVYVYWQTSESKTVVTYHIPQRSSLELVDSRYRNRALMSPAGMLRGDFSLRLFNVTPQDEQKFHCLVLSSSLGFQEVLSVEVTLHVAANFSVPVVSAPHSPSQDELTFTCTSINGYPRPNVYWINKTDNSLLDQALQNDTVFLNMRGLYDVVSVLRIARTPSVNIGCCIENVLLQQNLTVGSQTGNDIGERDKITENPVSTGEKNAAT : is its MFI strictly below 300000 MFI?
Fulfilled

Strictly below 300000 MFI in MFI? ICOSL-Fc N52G/N57V (Fc fusion) DTQEKEVRAMVGSDVELSCACPEGSRFDLNDVYVYWQTSESKTVVTYHIPQGSSLEVVDSRYRNRALMSPAGMLRGDFSLRLFNVTPQDEQKFHCLVLSQSLGFQEVLSVEVTLHVAANFSVPVVSAPHSPSQDELTFTCTSINGYPRPNVYWINKTDNSLLDQALQNDTVFLNMRGLYDVVSVLRIARTPSVNIGCCIENVLLQQNLTVGSQTGNDIGERDKITENPVSTGEKNAAT
Fulfilled

Find out if reported MFI for ICOSL-Fc N52G/N57V/Q100G (Fc fusion) DTQEKEVRAMVGSDVELSCACPEGSRFDLNDVYVYWQTSESKTVVTYHIPQGSSLEVVDSRYRNRALMSPAGMLRGDFSLRLFNVTPQDEQKFHCLVLSGSLGFQEVLSVEVTLHVAANFSVPVVSAPHSPSQDELTFTCTSINGYPRPNVYWINKTDNSLLDQALQNDTVFLNMRGLYDVVSVLRIARTPSVNIGCCIENVLLQQNLTVGSQTGNDIGERDKITENPVSTGEKNAAT is less than 300000 MFI
Fulfilled

# check: MFI < 300000 MFI for ICOSL-Fc N52L/N57H/Q100R (Fc fusion) DTQEKEVRAMVGSDVELSCACPEGSRFDLNDVYVYWQTSESKTVVTYHIPQLSSLEHVDSRYRNRALMSPAGMLRGDFSLRLFNVTPQDEQKFHCLVLSRSLGFQEVLSVEVTLHVAANFSVPVVSAPHSPSQDELTFTCTSINGYPRPNVYWINKTDNSLLDQALQNDTVFLNMRGLYDVVSVLRIARTPSVNIGCCIENVLLQQNLTVGSQTGNDIGERDKITENPVSTGEKNAAT
Not fulfilled

Quick check: does ICOSL-Fc N52M/N57H/Q100S (Fc fusion) DTQEKEVRAMVGSDVELSCACPEGSRFDLNDVYVYWQTSESKTVVTYHIPQMSSLEHVDSRYRNRALMSPAGMLRGDFSLRLFNVTPQDEQKFHCLVLSSSLGFQEVLSVEVTLHVAANFSVPVVSAPHSPSQDELTFTCTSINGYPRPNVYWINKTDNSLLDQALQNDTVFLNMRGLYDVVSVLRIARTPSVNIGCCIENVLLQQNLTVGSQTGNDIGERDKITENPVSTGEKNAAT have MFI under 300000 MFI?
Not fulfilled

Given ICOSL-Fc N52C/N57E/Q100S (Fc fusion) DTQEKEVRAMVGSDVELSCACPEGSRFDLNDVYVYWQTSESKTVVTYHIPQCSSLEEVDSRYRNRALMSPAGMLRGDFSLRLFNVTPQDEQKFHCLVLSSSLGFQEVLSVEVTLHVAANFSVPVVSAPHSPSQDELTFTCTSINGYPRPNVYWINKTDNSLLDQALQNDTVFLNMRGLYDVVSVLRIARTPSVNIGCCIENVLLQQNLTVGSQTGNDIGERDKITENPVSTGEKNAAT , is recorded MFI strictly lower than 300000 MFI?
Fulfilled

For this binder, is MFI lower than 300000 MFI? ICOSL ECD-Fc N52Q/N84Q/N119Q/N168Q (Fc fusion) DTQEKEVRAMVGSDVELSCACPEGSRFDLNDVYVYWQTSESKTVVTYHIPQQSSLENVDSRYRNRALMSPAGMLRGDFSLRLFQVTPQDEQKFHCLVLSQSLGFQEVLSVEVTLHVAAQFSVPVVSAPHSPSQDELTFTCTSINGYPRPNVYWINKTDNSLLDQALQQDTVFLNMRGLYDVVSVLRIARTPSVNIGCCIENVLLQQNLTVGSQTGNDIGERDKITENPVSTGEKNAAT
Fulfilled

# strict comparison: is reported MFI < 300000 MFI? input = ICOSL-Fc N52M/N57W/Q100P (Fc fusion) DTQEKEVRAMVGSDVELSCACPEGSRFDLNDVYVYWQTSESKTVVTYHIPQMSSLEWVDSRYRNRALMSPAGMLRGDFSLRLFNVTPQDEQKFHCLVLSPSLGFQEVLSVEVTLHVAANFSVPVVSAPHSPSQDELTFTCTSINGYPRPNVYWINKTDNSLLDQALQNDTVFLNMRGLYDVVSVLRIARTPSVNIGCCIENVLLQQNLTVGSQTGNDIGERDKITENPVSTGEKNAAT
Not fulfilled

Is MFI of ICOSL-Fc N52S/N57Y/Q100M (Fc fusion) DTQEKEVRAMVGSDVELSCACPEGSRFDLNDVYVYWQTSESKTVVTYHIPQSSSLEYVDSRYRNRALMSPAGMLRGDFSLRLFNVTPQDEQKFHCLVLSMSLGFQEVLSVEVTLHVAANFSVPVVSAPHSPSQDELTFTCTSINGYPRPNVYWINKTDNSLLDQALQNDTVFLNMRGLYDVVSVLRIARTPSVNIGCCIENVLLQQNLTVGSQTGNDIGERDKITENPVSTGEKNAAT strictly below 300000 MFI?
Not fulfilled

Lab note: MFI threshold 300000 MFI. Does this binder come in strictly under it? ICOSL-Fc N52T/N57H/Q100A (Fc fusion) DTQEKEVRAMVGSDVELSCACPEGSRFDLNDVYVYWQTSESKTVVTYHIPQTSSLEHVDSRYRNRALMSPAGMLRGDFSLRLFNVTPQDEQKFHCLVLSASLGFQEVLSVEVTLHVAANFSVPVVSAPHSPSQDELTFTCTSINGYPRPNVYWINKTDNSLLDQALQNDTVFLNMRGLYDVVSVLRIARTPSVNIGCCIENVLLQQNLTVGSQTGNDIGERDKITENPVSTGEKNAAT
Not fulfilled
